Measured Relative activity (%) of individual entries
# target-under-test: UniProtKB A0A1L7NQ96
# method: Substrate specificity of purified enzyme for all ketohexoses
# Type: biochemical, Arthrobacter globiformis M30
# assay-context: 400 mM substrate, 20 mM MgCl2, 70° C. (120 min for D-sorbose and L-fructose, 20 min others), D-psicose taken as 100
The figure you give is taken to be in %; do not add the unit.

# molecule, readout, reported-measurement
rows = [
    ("O=C(CO)[C@@H](O)[C@@H](O)[C@H](O)CO [D-tagatose]", "Relative activity (%)", 18.3),
    ("O=C(CO)[C@@H](O)[C@H](O)[C@@H](O)CO [L-sorbose]", "Relative activity (%)", 16.6),
    ("O=C(CO)[C@H](O)[C@@H](O)[C@@H](O)CO [L-fructose]", "Relative activity (%)", 0.97),
]

Value of Relative activity (%) reported for the molecule O=C(CO)[C@H](O)[C@H](O)[C@@H](O)CO [L-tagatose] is 44.0

Value of Relative activity (%) reported for the molecule O=C(CO)[C@H](O)[C@@H](O)[C@H](O)CO [D-sorbose] is 1.13

Value of Relative activity (%) reported for the molecule O=C(CO)[C@H](O)[C@H](O)[C@H](O)CO [D-psicose] is 100

Value of Relative activity (%) reported for the molecule O=C(CO)[C@@H](O)[C@@H](O)[C@@H](O)CO [L-psicose] is 21.2

Value of Relative activity (%) reported for the molecule O=C(CO)[C@@H](O)[C@H](O)[C@H](O)CO [D-fructose] is 43.8

====

# target-under-test: ketose 3-epimerase (Arthrobacter globiformis, UniProt A0A1L7NQ96)
# Sequence (A0A1L7NQ96 whole entry): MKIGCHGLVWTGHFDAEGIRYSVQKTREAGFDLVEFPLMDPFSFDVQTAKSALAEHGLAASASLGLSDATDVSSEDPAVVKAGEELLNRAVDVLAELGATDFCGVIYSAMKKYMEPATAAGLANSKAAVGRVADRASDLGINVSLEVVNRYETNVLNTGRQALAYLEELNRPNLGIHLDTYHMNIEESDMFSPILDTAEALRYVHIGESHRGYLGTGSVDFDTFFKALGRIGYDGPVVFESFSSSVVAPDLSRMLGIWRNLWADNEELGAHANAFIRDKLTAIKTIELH
# method: D-PE substrate specificity, enzyme before purification (crude enzyme)
# Assay type: biochemical, Arthrobacter globiformis M30
# assay-context: 0.2 M substrate, 55° C., 30 min, Tris buffer pH 7.0, D-psicose epimerization activity taken as 100
Rule for this label: satisfied means Relative activity (%) is less than 10%; not satisfied means Relative activity (%) is at least 10%.

Would you please look over these solved cases?
# compound, group-label
records = [
    ("O=C(CO)[C@@H](O)[C@H](O)[C@H](O)CO [D-fructose]", "not satisfied"),
    ("O=C(CO)[C@H](O)[C@@H](O)[C@@H](O)CO [L-fructose]", "not satisfied"),
    ("O=C(CO)[C@@H](O)[C@@H](O)[C@@H](O)CO [L-psicose]", "not satisfied"),
]

Exercise: In plain terms, does O=C(CO)[C@H](O)[C@H](O)[C@@H](O)CO [L-tagatose] come in under 10% for Relative activity (%)?
Solution: not satisfied

Exercise: In plain terms, does O=C(CO)[C@H](O)[C@@H](O)[C@H](O)CO [D-sorbose] come in under 10% for Relative activity (%)?
Solution: satisfied

Exercise: In plain terms, does O=C(CO)[C@@H](O)[C@H](O)[C@@H](O)CO [L-sorbose] come in under 10% for Relative activity (%)?
Solution: satisfied

Exercise: In plain terms, does O=C(CO)[C@@H](O)[C@@H](O)[C@H](O)CO [D-tagatose] come in under 10% for Relative activity (%)?
Solution: satisfied

====

# target-under-test: UniProt A0A1L7NQ96
# method: Effects of metal ions on EDTA treated purified enzyme
# Assay type: biochemical, Arthrobacter globiformis M30
# assay-context: 1 mM metal ion, D-psicose substrate, EDTA treated enzyme; activity without metal ions taken as 100
Measured Relative activity (%) of individual entries
The figure you give is taken to be in %; do not add the unit.

With UniProt A0A1L7NQ96 as the test system, `[Co+2]` showed Relative activity (%) of 130

With UniProt A0A1L7NQ96 as the test system, `[Ca+2]` showed Relative activity (%) of 110

With UniProt A0A1L7NQ96 as the test system, `[Zn+2]` showed Relative activity (%) of 0

With UniProt A0A1L7NQ96 as the test system, `[Ni+2]` showed Relative activity (%) of 87

====

# target-under-test: ketose 3-epimerase (Arthrobacter globiformis)
# method: Effects of metal ions on EDTA treated purified enzyme
# Format: biochemical, Arthrobacter globiformis M30
# assay-context: 1 mM metal ion, D-psicose substrate, EDTA treated enzyme; activity without metal ions taken as 100
# Procedure: The enzyme was examined for metal ion requirement. The purified enzyme was dialyzed for 2 hours against 10 mM Tris-HCl containing 1 mM EDTA (pH 7.5). The enzyme was further dialyzed against an EDTA-free 10 mM Tris-HCl buffer (pH 7.5) for a whole day and night to obtain an EDTA treated enzyme. This enzyme was used to measure the effect of metal ions on enzyme activity, using 1 mM of various metal ions, and D-psicose as the substrate. […]
Measured Relative activity (%) of individual entries
The figure you give is taken to be in %; do not add the unit.

These recorded examples may help you get a feel for the data.
# given-smiles, Relative activity (%)
rows = [
    ("[Fe+2]", 32),
    ("[Mg+2]", 150),
    ("[Cu+2]", 0),
    ("[Na+]", 120),
]

# evaluate next
Value of Relative activity (%) reported for the compound `[Mn+2]` is 137

Each recorded value in this set is attributed to patent US9932617B2.
